# System: polymorphonuclear (PMN) leukocytes
# assay_text: Release (secretion) of lysosomal enzymes from PMN leukocytes during phagocytosis
# Assay type: cell-based
# experimental_parameters: Rattus norvegicus, Leukocyte, 0.5 h, read-out: Secretion of Lysosomal Enzyme IC20, PMN leukocyte, PMN leukocyte; serum-treated zymosan, 37° C., 30 minutes
value_type: IC20 (nM)
Numbers only, in nM.

Guide cases for IC20, answers given:
CC(C)(S)[C@@H](N)C(=O)O [D-Penicillamine, D-penicillamine, reference compound]; 10000
CC(=O)Oc1ccccc1C(=O)O [AcetylsalicylicAcid, Acetylsalicylic Acid, reference compound]; 100
CN(C)CCN1C(=O)C(NC(=O)c2ccc(NS(C)(=O)=O)cc2)C(C)(C)SC1=S.Cc1ccc(S(=O)(=O)O)cc1 (stereo not shown) [Test Compound D, p-toluenesulfonate]; 300

[ask] Return reported IC20; argument: CN(C)CCN1C(=O)C(NC(=O)c2ccc(Cl)cc2)C(C)(C)SC1=S.Cc1ccc(S(=O)(=O)O)cc1 (stereo not shown) [Test Compound C, p-toluenesulfonate]
[reply] 1000
